Subject Of Test: HIV-1 RT (reverse transcriptase)
Assay Name: Inhibitory concentration against HIV-1 RT was determined
Property Label: pIC50
Numbers only, as −log10 of the molar value.

What the record says about O=C(C[C@H]1C(=O)Nc2ccccc2-c2cccn21)OCc1ccccc1 : pIC50 is 6.94
